// yeast fitness lookup, one value per entry
B1: tRNA (parent)
chain: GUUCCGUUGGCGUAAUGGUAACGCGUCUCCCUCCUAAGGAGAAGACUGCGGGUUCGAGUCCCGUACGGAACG

Variants of: B1
Test: yeast fitness relative to wild type (ratio to wild type); higher = fitter; tRNA-Arg(CCU), competitive growth, 37 C, YPD
This sample holds only a part of the variants without activity.
Lab note: record the figure alone, no unit after it.

>  <Change>
G9A C34U C61G

>  <Value Reported>
0.521

$$$$

For the variant A15G G48A C66U , give its reported yeast fitness. 0.747

Identify the reported yeast fitness for the following entry. G10A U16A A65U 0.575

Look up and report measured yeast fitness for this entry: A42G C49G U54C G63C A70U 0.547

Give the reported value of yeast fitness for this record: A43C A57U 0.678

Identify yeast fitness associated with the variant C4G C31U A37G 0.653

Supply yeast fitness value. Item: C11A C66U 0.569
